For each of the compounds below, state its growth.
- System: SN12C renal
- experimentalProtocol: NCI-60 one-dose screen, 48 h (100 = growth as untreated, 0 = no growth, -100 = all killed)
- conditions: 10 µM unless noted
About 83,000 compounds went through this panel and 20% of them were active in at least one assay; those are over-represented in the sample as a whole.
Expressed in %, but write only the number.

Inquiry: Name the reported growth value associated with the compound "c1ccc2cc(Cn3cc(CSc4nc5ccccc5s4)nn3)ccc2c1"
Reply text: 94.5

Inquiry: Can you look up the measured growth of "O=c1oc2c(cnc3ccccc32)cc1-c1cccc(Cl)c1" for me?
Reply text: 98.3

Inquiry: Item CCn1cc(C(=O)N/N=C/c2ccccc2)c(=O)c2cc(F)c(N3CCNC(C)C3)c(F)c21 (stereo not given) has what recorded growth?
Reply text: 61.7

Inquiry: So what does the record say about growth for "Nc1cc(C(=O)O)cc(-n2c(O)c(C=C3N=c4ccccc4=N3)sc2=S)c1" ?
Reply text: 95.8

Inquiry: Requested field: growth. Item: "O=S(=O)(Nc1ccc2ccccc2c1)c1ccc(-c2cnc(C3CC3)o2)cc1"
Reply text: 44.9

* * *

- Test system: KM12 colon
- experimentalProtocol: NCI-60 one-dose screen, 48 h (100 = growth as untreated, 0 = no growth, -100 = all killed)
- conditions: 10 µM unless noted
This is part of a sample that, as a whole, favours compounds with a hit. Of some 83,000 tested, about 20% had one in any assay. Calls of active or inactive are those of the source. Rule for the calls: active = growth percent below 10; inactive = the rest.
Field: growth. Provide a value for each of the compounds that follow.

Inquiry: growth of "O=C1NC(=O)C(c2coc3cc(Br)ccc23)=C1c1c[nH]c2ccccc12" on KM12 colon?
Reply text: 31.7% (inactive)

Inquiry: Report growth for "CCOC(=O)/C(=C(/C)NCC(C)C)c1cc(O)c(O)c2c(C)cc(=O)[nH]c12" tested on KM12 colon.
Reply text: 61.5% (inactive)

Inquiry: For KM12 colon, provide growth of "O=C(NCCCCO)c1cncnc1Nc1ccc2c(ccn2Cc2cccc(F)c2)c1" please.
Reply text: 97.4% (inactive)

Inquiry: For the record "CCSc1ccnc(N)n1" , what value of growth is listed for KM12 colon?
Reply text: 108% (inactive)

Inquiry: Observed growth on KM12 colon for "N=C(N)c1ccc(OCCSCCOc2ccc(C(=N)N)cc2)cc1" , please.
Reply text: 62.2% (inactive)

Inquiry: // lookup growth | system=KM12 colon | key= CCn1cc(C(=O)N/N=C/c2cccc(F)c2)c(=O)c2cc(F)c(N3CCNC(C)C3)c(F)c21 (stereo unspecified)
Reply text: -26.8% (active)

Inquiry: Short answer please: growth, KM12 colon, entry "O=S(O)c1cc(Cl)cc(Cl)c1OCc1ccccc1"
Reply text: 105% (inactive)

Inquiry: # value lookup — system KM12 colon, readout growth, item "O=C1C(Cl)=C(Nc2ccccc2)C(=O)c2ccccc21"
Reply text: 46.9% (inactive)

Inquiry: Enter reported growth observed with KM12 colon for "CCN(CC)CCCNc1cc(OC)c(OC)c2cccnc12"
Reply text: 84.1% (inactive)

Inquiry: Fill in the recorded growth for this compound, with KM12 colon as test system: COc1ccc2c(c1)C(C)Cc1c(ncnc1-n1cnc3cc(C)ccc31)N2C (stereo unspecified)
Reply text: 12.2% (inactive)

Inquiry: Which growth is reported with KM12 colon for this entry: C#CCOc1cccc(Nc2ncnc3c2ncn3C2CCN(C(=O)CCl)C2)c1 (stereo unspecified) ?
Reply text: 23.7% (inactive)
